Recorded hemolysis at 1 h, 50 ug/mL, one value per entry.
- Procedure Details: Hemolytic activity in Swiss mouse erythrocytes at 50 ug/mL after 1 hr by spectrophotometric analysis relative to control
- Assay type: ADME, cell-based, Erythrocyte
- Setup Conditions: read-out: Activity
Lab book: enter the figure in %, no units written.

[[record]]
molecule = "O=C1C(=O)c2ccccc2C2=C1CC(c1ccc(Cl)cc1)O2 (stereo not drawn)"
numeric_result = -1.51

[[record]]
molecule = "CC1(C)CC2=C(O1)C(=O)c1ccccc1C2=O"
numeric_result = 2.1

[[record]]
molecule = "O=C1C(=O)c2ccccc2C2=C1CC(c1ccc(F)cc1)O2 (stereo not drawn)"
numeric_result = -0.202

[[record]]
molecule = "Cc1ccc(C2CC3=C(O2)C(=O)c2ccccc2C3=O)cc1 (stereo not drawn)"
numeric_result = -0.786

[[record]]
molecule = "O=C1C(=O)c2ccccc2C2=C1CC(c1ccc(Br)cc1)O2 (stereo not drawn)"
numeric_result = 4.59

[[record]]
molecule = "Cc1ccc(C2CC3=C(O2)c2ccccc2C(=O)C3=O)cc1 (stereo not drawn)"
numeric_result = 5.28

[[record]]
molecule = "O=C1C2=C(OC(c3ccc(Cl)cc3)C2)C(=O)c2ccccc21 (stereo not drawn)"
numeric_result = 1.16

[[record]]
molecule = "CC1(c2ccccc2)CC2=C(O1)C(=O)c1ccccc1C2=O (stereo not drawn)"
numeric_result = 4.54

[[record]]
molecule = "O=C1C2=C(OC(c3ccc(Br)cc3)C2)C(=O)c2ccccc21 (stereo not drawn)"
numeric_result = 2.53

[[record]]
molecule = "Cc1ccc(C2CC3=C(O2)c2ccccc2C(=O)C3=O)c(C)c1 (stereo not drawn)"
numeric_result = 4.37


Documented hemolysis at 1 h, 50 ug/mL of O=C1C2=C(OC(c3ccc(F)cc3)C2)C(=O)c2ccccc21 (stereo not drawn) : -1.95

Recorded hemolysis at 1 h, 50 ug/mL (molecule CC1(c2ccccc2)CC2=C(O1)c1ccccc1C(=O)C2=O (stereo not drawn) ): -1.2
